Please respond with reported t/2-diss for every item in the list.
Target: T1, recombinant human cardiac troponin T (human, UniProt P45379 2-298)
T1 construct: In the ECL assay the cTnT came from the Troponin T hs CalSet calibrator; also called cTnT; TnT
Assay: SPR (Biacore T200, 37 C), Fab captured, cTnT analyte
Method: Detailed kinetic investigations were performed at 37° C. on a GE Healthcare T200 instrument. A Biacore CM-5 series S sensor was mounted into the instrument and was preconditioned according to the manufacturer's instructions. The system buffer was HBS-ET (10 mM HEPES (pH 7.4), 150 mM NaCl, 1 mM EDTA, 0.05% (w/v) Tween® 20). The sample buffer was the system buffer supplemented with 1 mg/ml CMD (Carboxymethyldextran, Fluka). […]
Numbers only, in min.

anti-cTnT Fab mutant 3 (Y34F, F60W, V101Y) (Fab, V domains shown, also called combination 3) VH: EVQLQQSGPELVKPGASVKMSCKASGYTFTDYFMKWVKQSHGKSLEWIGDINPNNGETWYNQKFKDKATLTVDKSSSTAYMQLNSLTSEDSAVYYCATRYFDYWGQGTTLTVSS VL: DIVLTQSPASLAVSLGQRATISCKASQSVDYDGTSYMNWFQQKAGQPPKRLIYAASNLESGIPARFSGRGSGTDFALNIHPVEEEDAATYYCQQSNEDPYTFGGGTKLEIK | 15
anti-cTnT Fab mutant 15 (Y34I, Y104F) (Fab, V domains shown, also called combination 15) VH: EVQLQQSGPELVKPGASVKMSCKASGYTFTDYIMKWVKQSHGKSLEWIGDINPNNGETFYNQKFKDKATLTVDKSSSTAYMQLNSLTSEDSAVYYCATRVFDFWGQGTTLTVSS VL: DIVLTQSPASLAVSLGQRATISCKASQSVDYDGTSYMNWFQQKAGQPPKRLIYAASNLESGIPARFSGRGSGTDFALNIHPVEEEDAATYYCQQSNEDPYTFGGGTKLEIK | 5

Data point: anti-cTnT Fab mutant 12 (Y34I, F60W, Y104F) (Fab, V domains shown, also called combination 12; combination "12") VH: EVQLQQSGPELVKPGASVKMSCKASGYTFTDYIMKWVKQSHGKSLEWIGDINPNNGETWYNQKFKDKATLTVDKSSSTAYMQLNSLTSEDSAVYYCATRVFDFWGQGTTLTVSS VL: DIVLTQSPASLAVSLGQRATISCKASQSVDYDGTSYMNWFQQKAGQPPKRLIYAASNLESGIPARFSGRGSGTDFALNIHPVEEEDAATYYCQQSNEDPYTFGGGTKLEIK ; t/2-diss = 31
